target: GABA A receptor α5β3γ2 (Homo sapiens, UniProt P18507+P31644); construct: expressed in transfected cells; host or cells: HEK293 cells, transiently transfected; membranes prepared; test: [3H]flumazenil competition binding, human GABA A α5β3γ2; details: competition for [3H]flumazenil (0.5 nM) binding, HEK293 cells expressing human (transiently transfected) α5β3γ2; means of two determinations; read-out: Ki[nM] hα5
endpoint: Ki (nM)

Here is how some compounds turned out for Ki.
compound	Ki [nM]
Cc1onc(-c2ccccc2)c1-c1nnc(C2CCCCC2)o1 [Example 70]	262
COc1cc(F)ccc1-c1nnc(-c2c(-c3ccccc3)noc2C(C)C)o1 [Example 61]	17.7
Cc1onc(-c2ccccc2)c1-c1nnc(-c2cccc(F)c2F)o1 [Example 84]	225
COc1cc(N2CCS(=O)(=O)CC2)c(F)cc1-c1nnc(-c2c(-c3ccccc3)noc2C)o1 [Example 117]	2
COc1cc(N2CCC(O)CC2)ccc1-c1nnc(-c2c(-c3ccccc3)noc2C)o1 [Example 29]	6

(P) COc1ccc(-c2nnc(-c3c(-c4ccccc4)noc3C)o2)c(OC)n1 [Example 100]
(Q) COc1cc(N2CCOCC2)ccc1-c1nnc(-c2c(-c3ccc(F)cc3)noc2C)o1 [Example 101]
(R) COc1cc(NC(C)=O)ccc1-c1nnc(-c2c(-c3ccccc3)noc2C)o1 [Example 89]
Put these in order: smallest Ki first, largest last. Could you list the labels in the order requested?
R, Q, P
